meta.source: the NIST ThermoML archive (doi:10.1016/j.tca.2016.03.025)

- procedure.text: Molar enthalpy of transition or fusion
- test.context: Crystal; DSC
reported.property: Molar enthalpy of transition or fusion (kcal/mol)
Number only, in kcal/mol; omit the unit.

Data point: COc1cccc([C@@]2(O)CCCC[C@@H]2CN(C)C)c1.Cl [tramadol hydrochloride] ; Molar enthalpy of transition or fusion = 7.07

Data point: CN[C@@H](C)[C@@H](O)c1ccccc1.Cl [Pseudoephedrine hydrochloride] ; Molar enthalpy of transition or fusion = 6.54

Data point: CC(=O)Nc1ccc(O)cc1 [N-acetyl-p-aminophenol] ; Molar enthalpy of transition or fusion = 6.51

Data point: CCC(=O)O[C@](Cc1ccccc1)(c1ccccc1)[C@H](C)CN(C)C.Cl [Dextropropoxyphene hydrochloride] ; Molar enthalpy of transition or fusion = 7.6
